Reported Kb values are given for each entry in this list.
- systemName: human prostanoid DP1 receptor (Homo sapiens, UniProt Q13258)
- Construct: expressed in transfected cells
- Sequence (Q13258 1-359): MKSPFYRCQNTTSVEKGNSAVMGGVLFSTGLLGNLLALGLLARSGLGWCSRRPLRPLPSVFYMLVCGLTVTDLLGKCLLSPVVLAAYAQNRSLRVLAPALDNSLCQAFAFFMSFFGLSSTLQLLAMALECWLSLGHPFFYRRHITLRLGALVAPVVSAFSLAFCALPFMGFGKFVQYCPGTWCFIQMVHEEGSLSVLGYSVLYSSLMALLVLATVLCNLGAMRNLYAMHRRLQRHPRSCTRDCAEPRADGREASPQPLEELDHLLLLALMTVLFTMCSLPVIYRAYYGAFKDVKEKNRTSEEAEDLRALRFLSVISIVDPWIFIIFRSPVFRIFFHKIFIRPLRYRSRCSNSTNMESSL
- protocolNotes: FLIPR Ca2+ signaling PG antagonist assay, DP1 stable cell line
- Format: cell-based
- testParameters: HEK-293 EBNA cells, human recombinant DP1 with chimeric Gqs; standard agonist BW 245C; read-out: DP (Kb, PG antagonist activity)

Please review the following examples before continuing.
>>> val("CC(C)(O)COc1ccc(Br)cc1Cn1ncc2cc(C(=O)O)ccc21")
"≥ 10 µM"
>>> val("Cc1nn(Cc2cc(C(F)(F)F)ccc2OCC(C)C)c2ccc(C(=O)O)cc12")
"0.22 µM"
>>> val("CC(C)COc1ccc(Br)cc1Cn1ccc2cc(C(=O)O)ccc21")
"≥ 10 µM"

We next turn to a different compound, shown below.
Query string: Provide Kb value for the following compound: CC(C)COc1ccc(Br)cc1Cn1ccc2nc(C(=O)O)ccc21
Result string: ≥ 10 µM

* * *

- systemName: human prostanoid EP1 receptor (Homo sapiens)
- Construct: expressed in transfected cells
- Sequence (P34995 whole entry): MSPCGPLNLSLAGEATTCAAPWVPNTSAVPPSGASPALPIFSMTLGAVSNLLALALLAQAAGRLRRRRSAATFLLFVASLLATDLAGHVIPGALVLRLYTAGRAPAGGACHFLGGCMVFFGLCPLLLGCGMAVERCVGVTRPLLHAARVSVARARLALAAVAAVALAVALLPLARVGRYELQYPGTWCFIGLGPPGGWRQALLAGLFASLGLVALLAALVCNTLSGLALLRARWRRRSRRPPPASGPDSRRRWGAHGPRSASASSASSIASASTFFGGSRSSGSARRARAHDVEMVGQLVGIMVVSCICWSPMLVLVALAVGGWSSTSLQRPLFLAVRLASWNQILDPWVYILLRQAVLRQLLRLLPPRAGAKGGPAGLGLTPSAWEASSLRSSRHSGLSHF
- protocolNotes: FLIPR Ca2+ signaling PG antagonist assay, EP1 stable cell line
- Format: cell-based
- testParameters: HEK-293 EBNA cells, human recombinant EP1, no exogenous G-protein; standard agonist PGE2
testReadout: Kb (nM)
Numeric answer only, unit nM assumed.

A selection of reference data follows.
>>> val("CCC(CC)COc1ccc(Br)cc1Cn1nc(C)c2cc(C(=O)O)ccc21 [Example 27]")
110
>>> val("CC(C)COc1ccc(C(F)(F)F)cc1Cn1ncc2cc(C(=O)O)ccc21 [Example 18]")
40
>>> val("CC(C)COc1ccc(OC(F)(F)F)cc1Cn1ccc2cc(C(=O)O)cnc21 [Example 74]")
60
>>> val("CC(C)COc1ccc(Br)cc1Cn1ncc2ccc(C(=O)O)cc21 [Example 42]")
24

Query string: Please report the measured Kb for O=C(O)c1ccc2c(cnn2Cc2cc(Br)ccc2OCc2ccc(Cl)cc2)c1 [Example 13]
Result string: 50

Query string: Note down Kb recorded for O=C(O)c1ccc2c(cnn2Cc2cc(C(F)(F)F)ccc2OCc2ccc(Cl)cc2)c1 [Example 32]
Result string: 210

Query string: Tell me Kb reported for CCC(CC)COc1ccc(Cl)cc1Cn1ncc2ccc(C(=O)O)cc21 [Example 46]
Result string: 7100

Query string: Fill in Kb for record CC(C)COc1ccc(OC(F)(F)F)cc1Cn1ncc2cc(C(=O)O)cnc21 [Example 58]
Result string: 30

Query string: Using known records, supply Kb for CCC(CC)COc1ccc(Cl)cc1Cn1nc(C)c2cc(C(=O)O)ccc21 [Example 23]
Result string: 30

Query string: Item O=C(O)c1ccc2c(cnn2Cc2cc(Cl)ccc2OCc2ccc(Cl)cc2)c1 [Example 9] : provide Kb
Result string: 90
